Test system: Bacillus subtilis
Experiment notes: cleaved RNA product abundance (RNA/gDNA barcode ratio) relative to median wild-type variant (ratio to wild type); higher = more accumulation of the downstream cleavage product
Study conditions: experiment (reporter, strain, medium): exp 2b: truncated aprE reporter, strain BJT200; cleavage site: cggR-gapA (positions -7 to +36 mutated)
Tick T if cleaved RNA product abundance is 0.3 or greater. Tick F if cleaved RNA product abundance is less than 0.3.

stdin: Would you say `ACAGACGAAGGAGCCGCAAAGAAATTATTAGGGGATGAATAATCCCTCCATATAAATATCTCTCACTTATTTAAA` shows cleaved RNA product abundance at minimum 0.3?
stdout: F

stdin: Would you say `ACAGACGAAGGAGCCGCAAAGAAGCTATTAAGGGATGAATAATCCCTAAATATAAATATCTCTCACTTATTTAAA` shows cleaved RNA product abundance at minimum 0.3?
stdout: T

stdin: Would you say `ACAGACGAAGGAGCCGCAAAGAAGTTATTAAGGGATGAATGATCCCTCCATATAAATATCTCTCACTTATTTAAA` shows cleaved RNA product abundance at minimum 0.3?
stdout: F

stdin: Would you say `ACAGACGAAGGAGCCGCAAAGAAATTATTAAAGGATGAATAATCCCTCAATATAAATATCTCTCACTTATTTAAA` shows cleaved RNA product abundance at minimum 0.3?
stdout: F

stdin: Would you say `ACAGACGAAGGAGCCGCAAAGAAGTTATTAAGGGATGAATATTCCCTCACTATAAATATCTCTCACTTATTTAAA` shows cleaved RNA product abundance at minimum 0.3?
stdout: F

stdin: Would you say `ACAGACGAAGGAGCCGCAAAGAAATTATTAAGGGATGAATAATCCCTAAATATAAATATCTCTCACTTATTTAAA` shows cleaved RNA product abundance at minimum 0.3?
stdout: T

stdin: Would you say `ACAGACGAAGGAGCCGCAAAGATGTTATTAAGGGATGAAAAATCCCTCAATATAAATATCTCTCACTTATTTAAA` shows cleaved RNA product abundance at minimum 0.3?
stdout: T

stdin: Would you say `ACAGACGAAGGAGCCGCAAAGAAGTTATTATGGGATAAATAATCCCTCAATATAAATATCTCTCACTTATTTAAA` shows cleaved RNA product abundance at minimum 0.3?
stdout: T

stdin: Would you say `ACAGACGAAGGAGCCGCAAAGAAGTTATTAAAGGATGAATAATCCCTCAATATAAATGTCTCTCACTTATTTAAA` shows cleaved RNA product abundance at minimum 0.3?
stdout: F
